Target: T1, TNFR1 (Homo sapiens, UniProt P19438)
T1 chain: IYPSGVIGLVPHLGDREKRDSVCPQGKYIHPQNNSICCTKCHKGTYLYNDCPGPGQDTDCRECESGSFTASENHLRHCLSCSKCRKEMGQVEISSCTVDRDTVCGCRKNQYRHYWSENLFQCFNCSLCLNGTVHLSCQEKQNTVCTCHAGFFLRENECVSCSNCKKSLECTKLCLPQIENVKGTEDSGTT
Test: yeast display SC50
Parameter: apparent Kd (screen) (nM)

1. E18I (designed binder) MTLQELLREEALRRAEAIAFRYALELLAEKFPEQKEYLLDLAEEIESQIRSLSGVDVEDVRKFLDKEWAWVKELLAEHPAELAEVEAARAARLAELRAEVEAKVAA ... 0.539
2. A76R (designed binder) MTLQELLREEALRRAEAEAFRYALELLAEKFPEQKEYLLDLAEEIESQIRSLSGVDVEDVRKFLDKEWAWVKELLREHPAELAEVEAARAARLAELRAEVEAKVAA ... 0.49
3. E95D (designed binder) MTLQELLREEALRRAEAEAFRYALELLAEKFPEQKEYLLDLAEEIESQIRSLSGVDVEDVRKFLDKEWAWVKELLAEHPAELAEVEAARAARLADLRAEVEAKVAA ... 0.593
4. E58A (designed binder) MTLQELLREEALRRAEAEAFRYALELLAEKFPEQKEYLLDLAEEIESQIRSLSGVDVADVRKFLDKEWAWVKELLAEHPAELAEVEAARAARLAELRAEVEAKVAA ... 0.718
